Reported values of protein stability index for individual entries
B1: INTS4 (parent)
chain: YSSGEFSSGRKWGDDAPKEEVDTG

- Variants of: B1
- TEST SUMMARY: protein stability index of a GFP-peptide fusion (GPS, HEK-293T) (PSI 1-6); higher = more stable;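 note: lentivirally expressed fusions sorted by FACS into six bins by GFP to DsRed ratio, PSI derived from sequencing read proportions per bin multiplied by bin number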
- CONDITION SUMMARY: c terminus: a fixed tail appended

MUTANT ID: S8C
protein stability index: 1.97
--
MUTANT ID: D22E
protein stability index: 2.72
--
MUTANT ID: T23M
protein stability index: 1.99
--
MUTANT ID: K18W
protein stability index: 2.88
--
MUTANT ID: G24L
protein stability index: 2.76
